measured_target: Protein cereblon/Eukaryotic peptide chain release factor GTP-binding subunit ERF3A (Homo sapiens) (UniProt Q96SW2+P15170)
Sequence (P15170 whole entry, looked up): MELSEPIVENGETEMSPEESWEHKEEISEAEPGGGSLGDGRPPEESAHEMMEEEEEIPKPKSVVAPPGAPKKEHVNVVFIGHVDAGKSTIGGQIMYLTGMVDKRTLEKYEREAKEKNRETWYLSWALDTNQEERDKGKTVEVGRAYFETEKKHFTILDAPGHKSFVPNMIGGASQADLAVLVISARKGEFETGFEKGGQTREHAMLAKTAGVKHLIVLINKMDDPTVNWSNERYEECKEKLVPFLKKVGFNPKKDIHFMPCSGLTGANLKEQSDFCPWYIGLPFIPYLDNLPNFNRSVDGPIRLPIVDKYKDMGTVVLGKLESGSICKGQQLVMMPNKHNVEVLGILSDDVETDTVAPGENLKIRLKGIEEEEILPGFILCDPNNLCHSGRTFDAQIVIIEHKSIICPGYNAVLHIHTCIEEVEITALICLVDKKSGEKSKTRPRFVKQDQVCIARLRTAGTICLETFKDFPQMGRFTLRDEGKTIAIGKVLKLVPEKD
Sequence (Q96SW2 whole entry, looked up): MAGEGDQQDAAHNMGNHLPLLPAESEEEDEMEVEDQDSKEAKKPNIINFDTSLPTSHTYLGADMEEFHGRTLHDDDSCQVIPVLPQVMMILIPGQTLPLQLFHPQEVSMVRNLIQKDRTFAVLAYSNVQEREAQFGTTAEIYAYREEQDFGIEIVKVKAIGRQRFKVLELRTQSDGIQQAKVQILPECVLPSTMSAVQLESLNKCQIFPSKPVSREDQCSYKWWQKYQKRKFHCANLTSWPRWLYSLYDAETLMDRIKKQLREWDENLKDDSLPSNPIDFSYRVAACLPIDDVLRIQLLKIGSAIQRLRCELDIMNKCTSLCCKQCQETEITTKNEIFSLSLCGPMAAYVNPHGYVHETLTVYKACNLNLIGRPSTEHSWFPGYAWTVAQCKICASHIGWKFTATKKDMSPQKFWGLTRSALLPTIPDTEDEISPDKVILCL
assay_protocol: Protac activity at CRBN/GSPT1 (unknown origin) transfected in HEK293T cells at 100 nM incubated for 24 hrs by flow cytometry analysis relative to control
Assay type: cell-based
assay_readout: Activity (%)

A. O=C1CCC(N2Cc3cc(NC(=O)C4=Cc5ccc(Br)cc5OC4)ccc3C2=O)C(=O)N1 (stereo unspecified)
B. CC(=O)Nc1ccc2c(c1)CN(C1CCC(=O)NC1=O)C2=O (stereo unspecified)
Which of the two gives a bigger number for Activity: A or B ? When you have decided, please share the label of that item.
A

----------
measured_target: Protein cereblon/Zinc finger protein Helios (Homo sapiens) (UniProt Q96SW2+Q9UKS7)
Sequence (Q96SW2 whole entry, looked up): as above
Sequence (Q9UKS7 whole entry, looked up): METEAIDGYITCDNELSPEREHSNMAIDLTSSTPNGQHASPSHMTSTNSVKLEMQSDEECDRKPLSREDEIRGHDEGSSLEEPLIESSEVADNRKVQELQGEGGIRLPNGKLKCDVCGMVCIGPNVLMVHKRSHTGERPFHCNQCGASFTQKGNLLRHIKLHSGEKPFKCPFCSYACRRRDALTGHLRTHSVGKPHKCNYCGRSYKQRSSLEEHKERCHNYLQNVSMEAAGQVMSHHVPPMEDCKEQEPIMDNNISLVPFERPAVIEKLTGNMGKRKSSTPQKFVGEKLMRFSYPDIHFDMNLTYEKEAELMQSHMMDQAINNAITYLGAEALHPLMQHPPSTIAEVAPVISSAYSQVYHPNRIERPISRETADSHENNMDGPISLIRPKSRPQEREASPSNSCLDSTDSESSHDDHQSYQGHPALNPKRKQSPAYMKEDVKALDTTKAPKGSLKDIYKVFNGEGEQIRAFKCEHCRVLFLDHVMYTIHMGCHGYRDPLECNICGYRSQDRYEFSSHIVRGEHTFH
assay_protocol: Protac activity at CRBN/IKZF2 in human MOLM-13 cells assessed as relative ratio at 25 uM incubated for 24 hrs by Western blotting analysis relative to DMSO
Assay type: cell-based
assay_readout: Ratio

Name the recorded Ratio of the item O=C1CCC(N2Cc3cc(NCc4ccc5c6c4CC=C4C=CC=C(C=C5)C46)ccc3C2=O)C(=O)N1 (stereo not drawn) in your answer.
0.95

Provide Ratio value for the following compound: O=C1CCC(N2Cc3cc(NCc4ccc5c(c4)oc4ccccc45)ccc3C2=O)C(=O)N1 (stereo not drawn)
0.94

Provide one value: measured Ratio of O=C1CCC(N2Cc3cc(NCc4ccc5ccccc5c4)ccc3C2=O)C(=O)N1 (stereo not drawn)
0.36

A. CN(C)c1ccc2cc(CNc3ccc4c(c3)CN(C3CCC(=O)NC3=O)C4=O)ccc2c1 (stereo not drawn)
B. O=C1CCC(N2Cc3cc(NCc4ccc5oc6ccccc6c5c4)ccc3C2=O)C(=O)N1 (stereo not drawn)
C. O=C1CCC(N2Cc3cc(NCCc4ccc5ccccc5c4)ccc3C2=O)C(=O)N1 (stereo not drawn)
Order field: Ratio | Direction: descending (largest first) Labels, ranked as asked.
C, A, B

A. O=C1CCC(N2Cc3cc(NCc4cccc5c4oc4ccccc45)ccc3C2=O)C(=O)N1 (stereo not drawn)
B. O=C1CCC(N2Cc3cc(NCc4ccc5cc(Br)ccc5c4)ccc3C2=O)C(=O)N1 (stereo not drawn)
Between the entries labelled A and B , which has a larger Ratio value on record? Indicate which entry you chose by stating its label.
B
(B: 1.41, A: 0.84)

a. O=C1CCC(N2Cc3cc(NCc4ccccc4)ccc3C2=O)C(=O)N1 (stereo not drawn)
b. O=C1CCC(N2Cc3cc(NCc4cccc(OCc5ccccc5)c4)ccc3C2=O)C(=O)N1 (stereo not drawn)
c. O=C1CCC(N2Cc3cc(NC(=O)c4ccc5ccccc5c4)ccc3C2=O)C(=O)N1 (stereo not drawn)
d. COc1ccc2cc(CNc3ccc4c(c3)CN(C3CCC(=O)NC3=O)C4=O)ccc2c1 (stereo not drawn)
List by increasing Ratio. Returns: the labels listed in the requested order.
c, d, b, a

a. O=C1CCC(N2Cc3cc(NCc4cc5ccccc5o4)ccc3C2=O)C(=O)N1 (stereo not drawn)
b. O=C1CCC(N2C(=O)c3ccc(NCc4ccc5ccccc5c4)cc3C2=O)C(=O)N1 (stereo not drawn)
I'd appreciate it if you could identify which of a and b has the greater Ratio. API: response body contains the label of the selected item.
b

----------
assay_protocol: Metabolic stability in human liver microsomes assessed as half life preincubated with NADPH and UDPGA for 5 mins followed by compound addition and measured upto 60 mins by LC-MS/MS analysis
Format: ADME, Microsome
assay_readout: half-life (min)

P. [2H]C([2H])([2H])Oc1ccc2cc(C(=O)Nc3ccc4c(c3)CN(C3CCC(=O)NC3=O)C4=O)ccc2c1 (stereo not given)
Q. COc1ccc2nc(C(=O)Nc3ccc4c(c3)CN(C3CCC(=O)NC3=O)C4=O)ccc2c1 (stereo not given)
Which value of half-life is numerically greater: that of P or that of Q ? Respond using the label that marks the chosen record.
Q
(Q: 15.9 min, P: 4.8 min)

1. COc1ccc2cc(C(=O)Nc3ccc4c(c3)CN(C3CCC(=O)NC3=O)C4=O)ncc2c1 (stereo not given)
2. COc1ccc2cc(C(=O)Nc3ccc4c(c3)CN(C3CCC(=O)NC3=O)C4=O)ccc2n1 (stereo not given)
Compare half-life: is it lower for 1 or for 2 ? Respond using the label that marks the chosen record.
1
